Ref: the supplement of paper PMC9112550

# Tested on: Escherichia coli TOP10
# assay_notes: shrunken log2 fold change of peptide-encoding DNA abundance (4.5 h post-induction vs induction); higher = less antimicrobial activity (less host growth inhibition)
# experimental_context: time post-induction: 4.5 h; library: site-saturation at positions 5, 18, 19, 20
assay_readout: shrunken log2 fold change

[[record]]
input_sequence = "RRIRWRPPRLPRPRPRPTFCPRP"
assay_result = 0.478

[[record]]
input_sequence = "RRIRLRPPRLPRPRPRPTYDPRP"
assay_result = 0.0466

[[record]]
input_sequence = "RRIRSRPPRLPRPRPRPVAHPRP"
assay_result = -0.0951

[[record]]
input_sequence = "RRIRYRPPRLPRPRPRPGQFPRP"
assay_result = -0.0455


QUERY: shrunken log2 fold change lookup needed for RRIRARPPRLPRPRPRPWRVPRP , thanks.
RESULT: 0.12

QUERY: shrunken log2 fold change lookup needed for RRIRRRPPRLPRPRPRPEFWPRP , thanks.
RESULT: 0.736

* * *

# Tested on: Escherichia coli TOP10
# assay_notes: shrunken log2 fold change of peptide-encoding DNA abundance (4.5 h post-induction vs induction); higher = less antimicrobial activity (less host growth inhibition)
# experimental_context: time post-induction: 4.5 h; library: site-saturation at positions 5, 18, 19, 20
assay_readout: shrunken log2 fold change
Answer as a number with no unit attached.

[[record]]
input_sequence = "RRIRHRPPRLPRPRPRPVYVPRP"
assay_readout = "shrunken log2 fold change"
assay_result = -0.158

[[record]]
input_sequence = "RRIRWRPPRLPRPRPRPTHRPRP"
assay_readout = "shrunken log2 fold change"
assay_result = 0.8

[[record]]
input_sequence = "RRIRWRPPRLPRPRPRPEWWPRP"
assay_readout = "shrunken log2 fold change"
assay_result = -0.0316

[[record]]
input_sequence = "RRIRLRPPRLPRPRPRPGNIPRP"
assay_readout = "shrunken log2 fold change"
assay_result = -0.0276

[[record]]
input_sequence = "RRIRFRPPRLPRPRPRPHQCPRP"
assay_readout = "shrunken log2 fold change"
assay_result = -0.315


QUERY: shrunken log2 fold change lookup needed for RRIRSRPPRLPRPRPRPCNIPRP , thanks.
RESULT: -0.178

QUERY: shrunken log2 fold change lookup needed for RRIRLRPPRLPRPRPRPAMKPRP , thanks.
RESULT: -0.0543

QUERY: shrunken log2 fold change lookup needed for RRIRTRPPRLPRPRPRPWLHPRP , thanks.
RESULT: -0.166

* * *

# Tested on: Escherichia coli TOP10;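 also: peptides expressed intracellularly from a pBAD plasmid library in pooled LB shake-flask culture, induced with 0.3% L-arabinose, DNA abundance read by NGS, three biological replicates, DESeq2 with apeglm shrinkage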
# assay_notes: shrunken log2 fold change of peptide-encoding DNA abundance (4.5 h post-induction vs induction); higher = less antimicrobial activity (less host growth inhibition)
# experimental_context: time post-induction: 4.5 h; library: site-saturation at positions 5, 18, 19, 20
assay_readout: shrunken log2 fold change
Answer as a number with no unit attached.

Below are worked cases with known answers.
[[record]]
input_sequence = "RRIRARPPRLPRPRPRPWQIPRP"
assay_result = -0.0641

[[record]]
input_sequence = "RRIRSRPPRLPRPRPRPHTQPRP"
assay_result = -0.433

[[record]]
input_sequence = "RRIRYRPPRLPRPRPRPFGTPRP"
assay_result = -0.158

[[record]]
input_sequence = "RRIRNRPPRLPRPRPRPPTPPRP"
assay_result = 0.56

[[record]]
input_sequence = "RRIRFRPPRLPRPRPRPTKHPRP"
assay_result = 0.101

[[record]]
input_sequence = "RRIRPRPPRLPRPRPRPDVAPRP"
assay_result = -0.0448

[[record]]
input_sequence = "RRIRQRPPRLPRPRPRPWMKPRP"
assay_result = 0.0212

[[record]]
input_sequence = "RRIRTRPPRLPRPRPRPYCGPRP"
assay_result = -0.294


QUERY: shrunken log2 fold change lookup needed for RRIRTRPPRLPRPRPRPPMTPRP , thanks.
RESULT: 0.172
